Hello, the source for this data is patent US20160297884A1, in case you need it.

Target: T1, Human BCMA (human, UniProt Q02223 1-54, limits assumed)
T1 construct: Soluble analyte in SPR; construct not described; also called huBCMA; B-cell maturation antigen
T1 sequence (looked up): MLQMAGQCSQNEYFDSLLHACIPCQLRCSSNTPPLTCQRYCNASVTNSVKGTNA
Test: SPR, IgG immobilised, 37 C
Attribute measured: T ½ (min)
Response body: numeric value in min, unit text excluded.

Answered cases to consult:
Specify T ½ for L3.PY/L1.FF/H2.YQ (antibody, V domains shown, IgG) VH: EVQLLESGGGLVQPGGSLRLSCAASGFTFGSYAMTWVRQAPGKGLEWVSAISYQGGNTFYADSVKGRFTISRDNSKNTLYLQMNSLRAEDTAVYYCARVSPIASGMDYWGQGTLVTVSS VL: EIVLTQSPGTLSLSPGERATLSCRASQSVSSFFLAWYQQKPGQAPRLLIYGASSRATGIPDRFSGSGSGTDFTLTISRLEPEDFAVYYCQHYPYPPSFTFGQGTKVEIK and stop.
7.61

Please report T ½ for the following binder: L3.PY/L1.FF/H3.TAQ (antibody, V domains shown, IgG) VH: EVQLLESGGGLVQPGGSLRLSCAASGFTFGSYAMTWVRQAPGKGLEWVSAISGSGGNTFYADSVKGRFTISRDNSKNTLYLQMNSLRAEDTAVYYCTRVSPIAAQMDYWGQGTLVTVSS VL: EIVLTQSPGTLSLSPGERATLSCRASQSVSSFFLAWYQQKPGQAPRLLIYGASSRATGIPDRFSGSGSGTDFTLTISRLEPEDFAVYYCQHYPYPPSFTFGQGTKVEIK
6.12

Moving on to another binder below.
Input L3.PY/L3.KF/P6E01 (antibody, V domains shown, IgG) VH: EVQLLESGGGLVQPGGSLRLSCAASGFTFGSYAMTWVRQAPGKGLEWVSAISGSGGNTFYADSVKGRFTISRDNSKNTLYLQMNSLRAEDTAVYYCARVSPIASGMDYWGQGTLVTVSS VL: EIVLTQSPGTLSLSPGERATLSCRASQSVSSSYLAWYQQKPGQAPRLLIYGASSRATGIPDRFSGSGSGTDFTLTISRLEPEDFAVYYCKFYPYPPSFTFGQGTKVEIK , output reported T ½.
5.56
